These measurements were taken from patent US8552032B2.

Could you please report measured log10 of IC50 for the items listed next?
Biological target: recombinant human DPP-1 (Cathepsin C) (Homo sapiens)
Sequence (P53634 25-463): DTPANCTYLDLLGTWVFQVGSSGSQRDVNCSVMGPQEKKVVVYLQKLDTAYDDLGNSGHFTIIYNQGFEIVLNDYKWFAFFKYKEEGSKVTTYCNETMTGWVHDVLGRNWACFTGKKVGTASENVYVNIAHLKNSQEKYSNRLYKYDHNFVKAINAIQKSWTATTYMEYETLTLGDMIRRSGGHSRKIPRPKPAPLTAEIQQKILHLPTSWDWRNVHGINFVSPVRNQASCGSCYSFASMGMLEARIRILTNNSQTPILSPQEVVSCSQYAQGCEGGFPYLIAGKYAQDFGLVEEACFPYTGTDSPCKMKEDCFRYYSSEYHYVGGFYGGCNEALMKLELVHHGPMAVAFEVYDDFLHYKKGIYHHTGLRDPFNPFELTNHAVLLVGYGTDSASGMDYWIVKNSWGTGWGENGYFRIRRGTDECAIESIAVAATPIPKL
Test: DPP-1 Inhibition Assay (in vitro), fluorogenic substrate GR-AMC
Settings: 0.15 nM DPP-1, 10 uM GR-AMC, pH 7.0, room temperature; average value where tested multiple times
Please be aware that the numbers have been log10-transformed from IC50 in nM.

Exercise: Name the reported log10 of IC50 value associated with the compound COc1ccc(-c2ccc3[nH]c(C4CCN(C(=O)[C@@H](N)Cc5ccco5)CC4)cc3c2)cc1OC
Solution: 2.93

Exercise: Name the reported log10 of IC50 value associated with the compound COc1ccc(-c2ccc3[nH]c(C4CCN(C(=O)[C@@H](N)Cc5cccs5)CC4)cc3c2)cc1OC
Solution: 1.97

Exercise: Name the reported log10 of IC50 value associated with the compound CC[C@H](N)C(=O)NCCCc1cc2cc(-c3ccc(F)cc3)ccc2[nH]1
Solution: 2.90

Exercise: Name the reported log10 of IC50 value associated with the compound CC[C@H](N)C(=O)NCCCc1cc2cc(-c3ccccc3C(N)=O)ccc2[nH]1
Solution: 3.30

Exercise: Name the reported log10 of IC50 value associated with the compound CC[C@H](N)C(=O)NCCCc1cc2cc(-c3ccc(C(N)=O)cc3)ccc2[nH]1
Solution: 2.84

Exercise: Name the reported log10 of IC50 value associated with the compound CC[C@H](N)C(=O)NCCCc1cc2cc(C(=O)Nc3ccccc3)ccc2o1
Solution: 3.61

Exercise: Name the reported log10 of IC50 value associated with the compound CC[C@H](N)C(=O)NCCCc1cc2cc(C(=O)Nc3cccc(OC)c3)ccc2[nH]1
Solution: 2.54

Exercise: Name the reported log10 of IC50 value associated with the compound CC[C@H](N)C(=O)NCCCc1cc2cc(C(=O)Nc3ccc(F)c(F)c3)ccc2[nH]1
Solution: 2.90

Exercise: Name the reported log10 of IC50 value associated with the compound CC[C@H](N)C(=O)NCCCc1cc2cc(-c3ccc(C(F)(F)F)cc3)ccc2[nH]1
Solution: 2.85

Exercise: Name the reported log10 of IC50 value associated with the compound CC[C@H](N)C(=O)NCCCc1cc2cc(-c3ccccc3)ccc2o1
Solution: 3.98

Exercise: Name the reported log10 of IC50 value associated with the compound CC[C@H](N)C(=O)NCCCc1cc2cc(C(=O)Nc3ccc4c(c3)S(=O)(=O)C=C4)ccc2o1
Solution: 3.00

Exercise: Name the reported log10 of IC50 value associated with the compound CC[C@H](N)C(=O)NCCCc1cc2cc(C(=O)Nc3cccc(F)c3)ccc2[nH]1
Solution: 2.95

Exercise: Name the reported log10 of IC50 value associated with the compound CC[C@H](N)C(=O)NCCCc1csc2ccccc12
Solution: 4.15

Exercise: Name the reported log10 of IC50 value associated with the compound CC[C@H](N)C(=O)NCCCc1cc2cc(C(=O)Nc3cccc4c3ncn4C)ccc2o1
Solution: 3.15

Exercise: Name the reported log10 of IC50 value associated with the compound CC[C@H](N)C(=O)NCCCc1cc2cc(C(=O)Nc3cccc4ccccc34)ccc2o1
Solution: 2.93

Exercise: Name the reported log10 of IC50 value associated with the compound CC[C@H](N)C(=O)NCCCc1cc2cc(-c3ccc4c(c3)OCO4)ccc2[nH]1
Solution: 2.72

Exercise: Name the reported log10 of IC50 value associated with the compound CC[C@H](N)C(=O)NCCCc1cc2ccccc2o1
Solution: 3.52

Exercise: Name the reported log10 of IC50 value associated with the compound CC[C@H](N)C(=O)NCCCc1cc2cc(C(=O)Nc3cc(-c4ccccc4)[nH]n3)ccc2[nH]1
Solution: 3.45

Exercise: Name the reported log10 of IC50 value associated with the compound CC[C@H](N)C(=O)NCCCc1cc2cc(C(=O)Nc3ccc(C)c(C)c3)ccc2[nH]1
Solution: 2.75

Exercise: Name the reported log10 of IC50 value associated with the compound CC[C@H](N)C(=O)NCCCc1cc2cc(C(=O)Nc3ncnc4[nH]ncc34)ccc2[nH]1
Solution: 3.40

Exercise: Name the reported log10 of IC50 value associated with the compound COc1ccc(-c2ccc3[nH]c(C4CCN(C(=O)[C@@H](N)Cc5cn(C)cn5)CC4)cc3c2)cc1OC
Solution: 3.53

* * *

Target: recombinant human DPP-1 (Cathepsin C) (Homo sapiens)
Assay: DPP-1 Inhibition Assay (in vitro), fluorogenic substrate GR-AMC
Conditions: 0.15 nM DPP-1, 10 uM GR-AMC, pH 7.0, room temperature; average value where tested multiple times
Could you please report measured IC50 for the items listed next?
Write the number in µM without appending the unit.

Exercise: What IC50 appears in the records for this compound with recombinant human DPP-1 (Cathepsin C) (Homo sapiens)? CC[C@H](N)C(=O)NCCCc1cc2cc(C(=O)Nc3nc[nH]n3)ccc2[nH]1 [Compound 48]
Solution: 6.3

Exercise: What IC50 appears in the records for this compound with recombinant human DPP-1 (Cathepsin C) (Homo sapiens)? COc1ccc(-c2ccc3[nH]c(C4CCN(C(=O)[C@@H](N)CC5CCC5)CC4)cc3c2)cc1OC [Compound 12]
Solution: 14

Exercise: What IC50 appears in the records for this compound with recombinant human DPP-1 (Cathepsin C) (Homo sapiens)? CC[C@H](N)C(=O)NCCCc1cc2cc(C(=O)N3CCc4ccccc4C3)ccc2o1 [Compound 84]
Solution: 1

Exercise: What IC50 appears in the records for this compound with recombinant human DPP-1 (Cathepsin C) (Homo sapiens)? CC[C@H](N)C(=O)NCCc1nc2ccccc2n1C [Compound 39]
Solution: 43

Exercise: What IC50 appears in the records for this compound with recombinant human DPP-1 (Cathepsin C) (Homo sapiens)? CC[C@H](N)C(=O)NCCCc1cc2cc(C(=O)Nc3ccccc3F)ccc2[nH]1 [Compound 87]
Solution: 2.6

Exercise: What IC50 appears in the records for this compound with recombinant human DPP-1 (Cathepsin C) (Homo sapiens)? CC[C@H](N)C(=O)NCCCc1cc2cc(C(=O)Nc3ccc(OC)c(OC)c3)ccc2o1 [Compound 58]
Solution: 0.73

Exercise: What IC50 appears in the records for this compound with recombinant human DPP-1 (Cathepsin C) (Homo sapiens)? CC[C@H](N)C(=O)NCCCc1cc2cc(-c3cc(C(F)(F)F)cc(C(F)(F)F)c3)ccc2[nH]1 [Compound 109]
Solution: 0.76

Exercise: What IC50 appears in the records for this compound with recombinant human DPP-1 (Cathepsin C) (Homo sapiens)? CC[C@H](N)C(=O)NCCCc1cc2cc(-c3ccc(OC)cc3)ccc2[nH]1 [Compound 104]
Solution: 0.34

Exercise: What IC50 appears in the records for this compound with recombinant human DPP-1 (Cathepsin C) (Homo sapiens)? CC[C@H](NC(=O)OC(C)(C)C)C(=O)NCCCc1cc2cc(C(=O)O)ccc2[nH]1 [Compound 47]
Solution: 53

Exercise: What IC50 appears in the records for this compound with recombinant human DPP-1 (Cathepsin C) (Homo sapiens)? CC[C@H](N)C(=O)NCCCc1cc2cc(C(=O)Nc3ccc(OC)c(OC)c3)ccc2[nH]1 [Compound 50]
Solution: 0.24

Exercise: What IC50 appears in the records for this compound with recombinant human DPP-1 (Cathepsin C) (Homo sapiens)? CC[C@H](N)C(=O)N(C)CCCc1cc2cc(C(=O)Nc3ccc(OC)c(OC)c3)ccc2[nH]1 [Compound 107]
Solution: 9

Exercise: What IC50 appears in the records for this compound with recombinant human DPP-1 (Cathepsin C) (Homo sapiens)? CC[C@H](N)C(=O)NCCCc1cc2cc(C(=O)Nc3cnc4ccccc4c3)ccc2o1 [Compound 64]
Solution: 0.35

Exercise: What IC50 appears in the records for this compound with recombinant human DPP-1 (Cathepsin C) (Homo sapiens)? COc1ccc(-c2ccc3[nH]c(C4CCN(C(=O)[C@@H](N)Cc5ccc(Cl)s5)CC4)cc3c2)cc1OC [Compound 24]
Solution: 5.8

Exercise: What IC50 appears in the records for this compound with recombinant human DPP-1 (Cathepsin C) (Homo sapiens)? CC[C@H](N)C(=O)NCCCc1cc2cc(C(=O)Nc3ccc(F)cc3)ccc2[nH]1 [Compound 79]
Solution: 1.3

Exercise: What IC50 appears in the records for this compound with recombinant human DPP-1 (Cathepsin C) (Homo sapiens)? CC[C@H](N)C(=O)NCCCc1cc2cc(C(=O)Nc3c(C)cccc3C)ccc2o1 [Compound 95]
Solution: 0.43

Exercise: What IC50 appears in the records for this compound with recombinant human DPP-1 (Cathepsin C) (Homo sapiens)? COc1ccc(NC(=O)c2ccc3[nH]c(CCCN(C)C(=O)[C@@H](N)Cc4cccs4)cc3c2)cc1OC [Compound 106]
Solution: 0.082

Exercise: What IC50 appears in the records for this compound with recombinant human DPP-1 (Cathepsin C) (Homo sapiens)? CC[C@H](N)C(=O)NCCCc1cc2cc(Oc3ccc(OC)c(OC)c3)ccc2[nH]1 [Compound 99]
Solution: 0.42

Exercise: What IC50 appears in the records for this compound with recombinant human DPP-1 (Cathepsin C) (Homo sapiens)? NC(=O)c1cccc(-c2ccc3[nH]c(C4CCN(C(=O)[C@@H](N)Cc5cccs5)CC4)cc3c2)c1 [Compound 5]
Solution: 0.3

Exercise: What IC50 appears in the records for this compound with recombinant human DPP-1 (Cathepsin C) (Homo sapiens)? CC[C@H](N)C(=O)NCCCc1cc2cc(C(=O)N3CCCc4ccccc43)ccc2o1 [Compound 71]
Solution: 2.6
